Literature IC50 values, system: Prostaglandin G/H synthase 2 (Ovis aries).
Sequence (P79208 whole entry): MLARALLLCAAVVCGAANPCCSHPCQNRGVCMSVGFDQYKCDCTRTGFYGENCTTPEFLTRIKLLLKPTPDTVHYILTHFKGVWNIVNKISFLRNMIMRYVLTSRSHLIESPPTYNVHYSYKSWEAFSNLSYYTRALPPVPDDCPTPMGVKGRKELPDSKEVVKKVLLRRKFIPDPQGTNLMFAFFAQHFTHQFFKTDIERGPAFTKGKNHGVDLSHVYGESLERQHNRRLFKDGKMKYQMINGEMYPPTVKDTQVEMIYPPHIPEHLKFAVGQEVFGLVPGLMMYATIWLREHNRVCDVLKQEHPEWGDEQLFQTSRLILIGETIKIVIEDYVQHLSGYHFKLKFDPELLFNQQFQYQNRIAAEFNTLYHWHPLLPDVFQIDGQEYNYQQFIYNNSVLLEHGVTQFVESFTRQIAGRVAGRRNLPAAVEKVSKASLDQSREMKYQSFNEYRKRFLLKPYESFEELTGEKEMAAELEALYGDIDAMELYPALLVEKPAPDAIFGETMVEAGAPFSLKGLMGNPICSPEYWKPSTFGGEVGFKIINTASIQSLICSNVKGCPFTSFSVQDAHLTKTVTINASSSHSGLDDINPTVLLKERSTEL
Return type: number; implicit unit µM.

Below: 8 compounds and their reported IC50.
>>> df
                                   compound  measured_metric  observed_result
0          CC/C=C\C/C=C\C/C=C\CCCCCCCC(=O)O             IC50               12
1  COc1ccccc1/C=C1\OC(=O)C(c2ccccc2Cl)=C1c1ccc(S(C)(=O)=O)cc1             IC50             14.6
2  C[C@]1(CC(F)F)CC=C2C(CCC3[C@](C)(C(=O)O)CCC[C@@]23C)C1 (stereo not given in full)             IC50              796
3  COc1cc(C2CC(c3cc4ccccc4oc3=O)=NN2C(C)=O)cc(OC)c1OC (stereo not given)             IC50             4.35
4  CC(=O)Oc1ccc(C2=C(c3ccc(S(C)(=O)=O)cc3)COC2=O)cc1             IC50          0.00126
5  OC[C@H]1C[C@](O)(c2ccc(Cl)cc2)[C@@H](c2ccc(Cl)cc2)O1             IC50                3
6  CC(=O)N1N=C(c2cc3ccccc3oc2=O)CC1c1ccc(O)cc1 (stereo not given)             IC50             2.39
7  CC[C@@]1(C)CC=C2C(CCC3[C@](C)(C(=O)O)CCC[C@@]23C)C1 (stereo not given in full)             IC50              425

Please state recorded IC50 (tested on Prostaglandin G/H synthase 2 (Ovis aries)) of COc1ccccc1/C=C1\OC(=O)C(c2ccc(F)cc2)=C1c1ccc(S(C)(=O)=O)cc1
13.9

Provide value of IC50 for this record tested with Prostaglandin G/H synthase 2 (Ovis aries): CC(=O)Nc1ccc(S(=O)(=O)Nn2c(C)nc3ccccc3c2=O)cc1
4.41

Item: Cc1ccc(S(=O)(=O)N/N=C/c2coc3ccccc3c2=O)cc1 Test system: Prostaglandin G/H synthase 2 (Ovis aries) Read-out: IC50 Value: ?
204

Query for Prostaglandin G/H synthase 2 (Ovis aries): what IC50 does the record show for CC(=O)Oc1cccc(C2=C(c3ccc(S(C)(=O)=O)cc3)COC2=O)c1 ?
0.00168

Entry Cc1ccc(C2=C(c3ccc(NS(C)(=O)=O)cc3)COC2=O)cc1 , system Prostaglandin G/H synthase 2 (Ovis aries): what IC50 was measured?
0.9

Prostaglandin G/H synthase 2 (Ovis aries) / IC50 / CC1=CC(c2ccccc2[N+](=O)[O-])NC(=S)N1 (racemic) : value?
50
